method-description: Selectivity index, ratio of CC50 for MDCK cells to EC50 for H1N1 infected in MDCK cells
Type: toxicity, cell-based
settings: dog, read-out: Ratio CC50/EC50
measurement-kind: selectivity ratio

Please go through the list and note selectivity ratio for each compound.
1. O=c1[nH]c(=O)n([C@@H]2O[C@H](CO)[C@@H](O)[C@@H]2O)cc1C#Cc1ccc2c3cccc4cccc(c5cccc1c52)c43
2. O=c1[nH]c(=O)n([C@H]2C[C@H](O)[C@@H](CO)O2)cc1C#Cc1ccc2c3cccc4cccc(c5cccc1c52)c43

**Result**
1. > 3000
2. > 3000

---

Test system: Human alphaherpesvirus 1
method-description: Antiviral activity against HSV-1 infected in African green monkey Vero cells preincubated with virus for 5 mins
Assay type: functional, organism-based
settings: Human alphaherpesvirus 1, Vero
Please provide measured EC50 for the entries that follow.
Answers are plain numbers, in nM.

# annotated cases, reported EC50 shown
O=c1[nH]c(=O)n([C@H]2C[C@H](O)[C@@H](CO)O2)cc1C#Cc1ccc2c3cccc4cccc(c5cccc1c52)c43; 48
CC(C)(C)C(=O)OC[C@@H]1CC[C@H](n2cc(C#Cc3ccc4c5cccc6cccc(c7cccc3c74)c65)c(=O)[nH]c2=O)O1; 190

# next compound below
**Query** Query (compound): O=c1[nH]c(=O)n([C@H]2CC[C@@H](CO)O2)cc1C#Cc1ccc2c3cccc4cccc(c5cccc1c52)c43 ; field requested: EC50
**Result** 87

---

Task for the reader: assign each of the following molecules its reported selectivity ratio.
method-description: Selectivity index, ratio of CC50 for African green monkey Vero cells to EC50 for HSV-2 infected in Vero cells
Assay type: toxicity, cell-based
settings: read-out: Ratio CC50/EC50

O=c1[nH]c(=O)n([C@@H]2O[C@H](CO)[C@@H](O)[C@@H]2O)cc1C#Cc1ccc2c3cccc4cccc(c5cccc1c52)c43; > 3000

Note: attention shifts to another entry.
**Query** Data request, read-out selectivity ratio, for O=c1[nH]c(=O)n([C@H]2C[C@H](O)[C@@H](CO)O2)cc1C#Cc1ccc2c3cccc4cccc(c5cccc1c52)c43
**Result** > 3000

---

method-description: Cytotoxicity against human RD cells assessed as reduction in cell viability after 24 hrs by microscopic method
Format: cell-based
measurement-kind: CC50 at 24 h (µM)
One number for each entry, in µM.

Reference set (7 entries):
CC(C)(CO)[C@@H](O)CNC(=O)Cn1cc(C#Cc2ccc3c4cccc5cccc(c6cccc2c63)c54)c(=O)[nH]c1=O; 76
O=C(Cn1cc(C#Cc2ccc3c4cccc5cccc(c6cccc2c63)c54)c(=O)[nH]c1=O)NCCCCO; 76
CC(C)(C)C(=O)OCn1c(=O)c(C#Cc2ccc3c4cccc5cccc(c6cccc2c63)c54)cn(CC(=O)NCCCCCCO)c1=O; 19
CC(C)(C)C(=O)OCn1c(=O)c(C#Cc2ccc3c4cccc5cccc(c6cccc2c63)c54)cn(CC(=O)NC[C@H](O)C(C)(C)CO)c1=O; 19
CCCCNC(=O)Cn1cc(C#Cc2ccc3c4cccc5cccc(c6cccc2c63)c54)c(=O)n(COC(=O)C(C)(C)C)c1=O; 38
O=C(Cn1cc(C#Cc2ccc3c4cccc5cccc(c6cccc2c63)c54)c(=O)[nH]c1=O)NCCCCCCO; 19
CC(C)(C)C(=O)OCn1c(=O)c(C#Cc2ccc3c4cccc5cccc(c6cccc2c63)c54)cn(CC(=O)NCCCCCO)c1=O; 19

**Query** Item under review: O=C(O)Cn1cc(C#Cc2ccc3c4cccc5cccc(c6cccc2c63)c54)c(=O)[nH]c1=O . Reported CC50 at 24 h?
**Result** 61
